Molecular target: T1, mouse NMUR1-ATG (mouse, UniProt O55040 1-428)
T1 construct: whole, on cells; Cell line with engineered ATG start codon in place of the genomic CTG; also called mouse R1-ATG
T1 sequence (looked up): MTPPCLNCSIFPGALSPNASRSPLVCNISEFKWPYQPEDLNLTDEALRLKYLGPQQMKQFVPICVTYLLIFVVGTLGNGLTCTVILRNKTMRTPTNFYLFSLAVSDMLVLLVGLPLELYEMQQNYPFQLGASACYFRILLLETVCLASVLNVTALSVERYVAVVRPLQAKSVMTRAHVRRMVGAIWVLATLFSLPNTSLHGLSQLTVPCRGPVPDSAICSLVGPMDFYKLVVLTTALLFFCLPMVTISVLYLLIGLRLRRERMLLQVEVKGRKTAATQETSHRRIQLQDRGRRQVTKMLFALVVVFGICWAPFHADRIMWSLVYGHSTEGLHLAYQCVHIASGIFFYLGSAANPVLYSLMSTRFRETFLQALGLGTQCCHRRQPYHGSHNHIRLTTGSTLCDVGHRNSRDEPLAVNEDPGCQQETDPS
Test: 125I-hNMU-25 displacement, cell membranes
No end group written: not given here.
Value Type: IC50 (pM)
Your answer is read as pM, so omit the unit and give the number.

Query: Quick one: IC50 for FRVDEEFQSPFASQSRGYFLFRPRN-NH2 (also called hNMU-25; native hNMU) [human NMU-25] ?
Reply: 400
